In this section, each of the compounds is paired with its reported DC50.
- experimental_system: GSPT1 (Homo sapiens, UniProt P15170+Q96SW2)
- Sequence (P15170 whole entry): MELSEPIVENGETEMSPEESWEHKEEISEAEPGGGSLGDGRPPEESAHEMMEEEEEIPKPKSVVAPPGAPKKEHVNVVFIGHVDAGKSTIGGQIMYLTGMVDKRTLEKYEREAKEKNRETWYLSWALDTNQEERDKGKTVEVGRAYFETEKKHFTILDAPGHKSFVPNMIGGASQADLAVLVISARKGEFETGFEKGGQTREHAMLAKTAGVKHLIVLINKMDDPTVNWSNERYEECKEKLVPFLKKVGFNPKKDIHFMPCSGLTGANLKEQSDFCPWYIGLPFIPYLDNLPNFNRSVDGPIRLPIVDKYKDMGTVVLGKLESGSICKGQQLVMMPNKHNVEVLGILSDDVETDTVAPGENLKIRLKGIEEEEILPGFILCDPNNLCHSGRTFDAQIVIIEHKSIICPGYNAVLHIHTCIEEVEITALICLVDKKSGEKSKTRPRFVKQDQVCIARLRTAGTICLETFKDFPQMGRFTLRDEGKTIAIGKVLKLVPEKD
- Sequence (Q96SW2 whole entry): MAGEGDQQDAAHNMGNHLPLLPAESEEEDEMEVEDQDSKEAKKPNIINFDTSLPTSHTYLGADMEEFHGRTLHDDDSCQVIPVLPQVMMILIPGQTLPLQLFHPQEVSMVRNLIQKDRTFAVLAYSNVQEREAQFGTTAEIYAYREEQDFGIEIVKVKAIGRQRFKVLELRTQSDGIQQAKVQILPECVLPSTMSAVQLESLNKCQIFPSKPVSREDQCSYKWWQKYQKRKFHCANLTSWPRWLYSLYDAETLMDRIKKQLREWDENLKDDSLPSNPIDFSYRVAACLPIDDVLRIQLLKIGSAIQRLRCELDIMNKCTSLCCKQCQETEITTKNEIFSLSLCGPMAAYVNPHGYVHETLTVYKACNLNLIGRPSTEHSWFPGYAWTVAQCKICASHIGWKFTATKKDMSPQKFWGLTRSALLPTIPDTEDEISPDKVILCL
- Sequence (Q16531 whole entry partner): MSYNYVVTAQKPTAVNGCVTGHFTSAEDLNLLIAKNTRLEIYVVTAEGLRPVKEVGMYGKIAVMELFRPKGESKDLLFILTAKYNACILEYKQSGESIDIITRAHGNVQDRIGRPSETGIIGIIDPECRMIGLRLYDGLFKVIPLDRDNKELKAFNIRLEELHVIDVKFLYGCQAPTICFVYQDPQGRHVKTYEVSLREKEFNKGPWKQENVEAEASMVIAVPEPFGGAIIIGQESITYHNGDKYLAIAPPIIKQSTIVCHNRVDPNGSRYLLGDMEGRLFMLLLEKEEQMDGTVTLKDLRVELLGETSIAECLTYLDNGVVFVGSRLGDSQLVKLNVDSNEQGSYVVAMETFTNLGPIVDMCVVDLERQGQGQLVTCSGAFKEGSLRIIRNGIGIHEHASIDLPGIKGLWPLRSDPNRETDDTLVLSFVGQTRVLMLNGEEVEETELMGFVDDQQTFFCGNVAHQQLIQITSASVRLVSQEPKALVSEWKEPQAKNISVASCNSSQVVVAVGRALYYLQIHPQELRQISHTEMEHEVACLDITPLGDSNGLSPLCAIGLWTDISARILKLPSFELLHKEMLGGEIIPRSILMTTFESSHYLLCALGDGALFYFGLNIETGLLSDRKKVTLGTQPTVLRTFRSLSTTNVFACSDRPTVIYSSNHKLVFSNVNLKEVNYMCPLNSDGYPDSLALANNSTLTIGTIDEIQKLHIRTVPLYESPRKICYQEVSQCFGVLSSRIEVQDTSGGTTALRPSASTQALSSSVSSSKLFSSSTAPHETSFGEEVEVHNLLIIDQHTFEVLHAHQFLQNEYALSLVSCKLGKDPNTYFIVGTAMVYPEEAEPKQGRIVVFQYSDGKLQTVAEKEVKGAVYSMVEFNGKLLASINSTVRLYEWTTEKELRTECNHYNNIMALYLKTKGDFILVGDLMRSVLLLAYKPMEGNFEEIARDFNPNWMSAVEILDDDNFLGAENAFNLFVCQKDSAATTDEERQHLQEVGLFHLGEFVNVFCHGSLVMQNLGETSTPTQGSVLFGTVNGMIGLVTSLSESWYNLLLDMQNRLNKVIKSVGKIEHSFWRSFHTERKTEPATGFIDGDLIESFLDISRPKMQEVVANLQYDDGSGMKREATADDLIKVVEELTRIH
- measurement_notes: HiBiT degradation assay, GSPT1, Procedure A
- Assay type: cell-based
- Parameters: HiBit-GSPT1 KI HEK293(LgBit) Cells; host or cells: HEK293(LgBit) knock-in cells
- experimental_context: six hours

INSERT INTO results (compound, experimental_system, measured_value) VALUES
  ('Cn1ncc(-c2ccc3c(c2)CN(C2CCC(=O)NC2=O)C3=O)c1-c1ccc2c(c1)OC(F)(F)O2 (stereo not drawn) [Example 428]', 'GSPT1 (Homo sapiens, UniProt P15170+Q96SW2)', '≥ 25 nM'),
  ('CC(C)n1nc(-c2ccccc2)nc1-c1ccc2c(c1)CN(C1CCC(=O)NC1=O)C2=O (stereo not drawn)', 'GSPT1 (Homo sapiens, UniProt P15170+Q96SW2)', '≥ 25 nM'),
  ('Cn1ncc(-c2ccc3c(c2)CN(C2CCC(=O)NC2=O)C3=O)c1-c1ccc2nccn2c1 (stereo not drawn)', 'GSPT1 (Homo sapiens, UniProt P15170+Q96SW2)', '≥ 25 nM'),
  ('CC(C)n1nc(-c2ccc3c(c2)CN(C2CCC(=O)NC2=O)C3=O)cc1-c1ccccc1 (stereo not drawn)', 'GSPT1 (Homo sapiens, UniProt P15170+Q96SW2)', '≥ 25 nM');

Request body: readout DC50, system GSPT1 (Homo sapiens, UniProt P15170+Q96SW2), query Cn1ncc(-c2ccc3c(c2)CN(C2CCC(=O)NC2=O)C3=O)c1-c1ccn(-c2ccc(F)cc2)n1 (stereo not drawn) . Return the value.
≥ 25 nM

// lookup DC50 | system=GSPT1 (Homo sapiens, UniProt P15170+Q96SW2) | key= Cn1cnc(-c2ccc3c(c2)CN(C2CCC(=O)NC2=O)C3=O)c1-c1ccc(N)nc1 (stereo not drawn)
≥ 25 nM

Param readout= DC50; system= GSPT1 (Homo sapiens, UniProt P15170+Q96SW2); entry= Cn1cnc(-c2ccc3c(c2)CN(C2CCC(=O)NC2=O)C3=O)c1-c1ccc(F)cc1C(F)(F)F (stereo not drawn) ; returns value.
≥ 25 nM

Lab note: need DC50 for Cc1cc(C)cc(-c2nc(-c3ccc4c(c3)CN(C3CCC(=O)NC3=O)C4=O)cn2C)c1 (stereo not drawn) on GSPT1 (Homo sapiens, UniProt P15170+Q96SW2), anyone have it?
< 25 nM

Give DC50 (GSPT1 (Homo sapiens, UniProt P15170+Q96SW2)) of the following compound: Cn1nc(-c2ccc3c(c2)CN(C2CCC(=O)NC2=O)C3=O)nc1C1CCC(F)(F)CC1 (stereo not drawn)
≥ 25 nM

Recorded DC50 for Cn1cc(-c2ccc3c(c2)CN(C2CCC(=O)NC2=O)C3=O)nc1-c1ccc(C#N)nc1 (stereo not drawn) with GSPT1 (Homo sapiens, UniProt P15170+Q96SW2), please?
< 25 nM
